- ASSAY OVERVIEW: Skin homogenate study (degradation half-life, LC-MS/MS)
- Assay type: in vitro ADME, human
- DETAILS: pooled human skin homogenate, 37° C., compound working solution 40 μg/mL mixed with equal volume of homogenate
Residues, ends and D or L forms follow the SMILES beside them.
ENDPOINT LABEL: Half life in skin homogenate (min)

> print(dat)
                                   compound  readout.unit  reported.result
1  CC[C@H](C)[C@H](N)C(=O)N1CCC[C@H]1C(=O)O [Ile-Pro] (H-Ile-Pro-OH)           min              135
2  N[C@@H](Cc1c[nH]c2ccccc12)C(=O)NCC(=O)O [Trp-Gly] (H-Trp-Gly-OH)           min               64
3  NC(Cc1c[nH]c2ccccc12)C(=O)N1CCCC1C(=O)O (stereo not shown)           min               34
4  N[C@@H](CC(=O)O)C(=O)N[C@@H](Cc1ccccc1)C(=O)O [Asp-Phe] (H-Asp-Phe-OH)           min               77
5  C[C@H](N)C(=O)N[C@@H](CCC(=O)O)C(=O)O [Ala-Glu] (H-Ala-Glu-OH)           min               39
6  CC(C)[C@H](NC(=O)CN)C(=O)O [Gly-Val] (H-Gly-Val-OH)           min               48

[I] NCC(=O)N[C@@H](CCCN=C(N)N)C(=O)O [Gly-Arg] (H-Gly-Arg-OH)
[II] O=C(O)[C@H](CO)NC(=O)[C@@H]1CCCN1 [Pro-Ser] (H-Pro-Ser-OH)
[III] C[C@H](N)C(=O)N[C@@H](C)C(=O)O [Ala-Ala] (H-Ala-Ala-OH)
Request: Arrange the 3 compounds by rising Half life in skin homogenate, starting with the smallest. API: response body holds the labels in the requested order.
Result: III, I, II
(III: 23 min, I: 45 min, II: 284 min)
